- Tested System: fMet-Leu-Phe receptor (Homo sapiens)
- Assay Explanation: human FPR ligands by binding competition, primary screen, cell-based, FPRL1 counter-screen, flow cytometry (AID 440);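 further: 0% = buffer wells and 100% = receptor blocker peptide wells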
- Condition Notes: FPR-expressing cells, fluorescent ligand binding, hits give high values, concentration not given here
Among all 24,000 compounds or so, about 180 (0.75%) were called active. Many of the other results were omitted from the sample, so actives are more common in it than they were.
What inhibition was measured for each of the following?
One number for each entry, in %.

inhibition reading for Cc1ccc(NC(=O)c2nc[nH]c2C(=O)N2CCCCC2)c(C(=O)c2ccccc2)c1 : -3.6

Would you mind listing inhibition for each of the following molecules?
1. COc1ccc(CC(NC(C)=O)C(=O)NC2CCN(C(=O)Nc3ccc(C#N)cc3)CC2)cc1OC (stereo not given)
2. CCOC(=O)C1(C(F)(F)F)N=C(N(C)C)OC(N(C)C)=N1
3. CCOC(=O)c1oc2ccccc2c1NC(=O)c1cccs1
4. COc1ccc(/C(O)=C2/C(=O)C(=O)N(CCCN(C)C)C2c2ccccc2)cc1OC (stereo not given)

[13.5, -1.4, -2.1, -8.5]

* * *

- Tested System: fMet-Leu-Phe receptor (Homo sapiens)
- Assay Explanation: human FPR ligands by binding competition, primary screen, cell-based, FPRL1 counter-screen, flow cytometry (AID 440);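 further: 0% = buffer wells and 100% = receptor blocker peptide wells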
- Condition Notes: FPR-expressing cells, fluorescent ligand binding, hits give high values, concentration not given here
About 180 (0.75%) of roughly 24,000 compounds were called active. This excerpt belongs to a sample that is enriched for actives.
What inhibition was measured for each of the following?
Numbers only, in %.

Previously resolved entries follow.
inhibition reading for Nc1nonc1-c1noc(-c2ccc(Br)o2)n1 : -6.7

inhibition reading for Cc1cccc(-n2nc3c(c2NC(=O)c2ccc(Br)o2)CSC3)c1C : 6.4

inhibition reading for CCOC(=O)CSc1nc2c(c(=O)n(C)c(=O)n2C)n1Cc1ccccc1F : 4.7

inhibition reading for C/C(CC(O)(/C=N/O)c1ccccc1)=N\O (stereo unspecified) : 7.2

inhibition reading for C=CCn1c(SCC(=O)NC23CC4CC(CC(C4)C2)C3)nc(O)cc1=O : 3.3

Would you mind listing inhibition for each of the following compounds?
1. Cc1onc(-c2ccccc2Cl)c1C(=O)NCCn1ccc2ccccc21
2. COc1ccc(-c2ccc(Nc3ccc(S(=O)(=O)N4CCCC4)cc3)nn2)cc1OC
3. CCOc1ccc2c(=O)c(-c3ccc4c(c3)OCCCO4)c(C)oc2c1
4. O=C(Nc1ccccc1C(F)(F)F)c1cc(-c2ccc(O)cc2)on1
5. O=C(COC(=O)c1ccccc1C(=O)c1ccccc1)c1ccco1
6. COc1ccc(Cn2nnc3c(=O)[nH]c(C4CCN(C(=O)c5ccccc5Cl)CC4)nc32)cc1

1: 5.6; 2: -6.4; 3: -4.1; 4: -2.3; 5: -1; 6: -0.8

* * *

- Tested System: fMet-Leu-Phe receptor (Homo sapiens) (UniProt P21462)
- Sequence (P21462 whole entry, looked up): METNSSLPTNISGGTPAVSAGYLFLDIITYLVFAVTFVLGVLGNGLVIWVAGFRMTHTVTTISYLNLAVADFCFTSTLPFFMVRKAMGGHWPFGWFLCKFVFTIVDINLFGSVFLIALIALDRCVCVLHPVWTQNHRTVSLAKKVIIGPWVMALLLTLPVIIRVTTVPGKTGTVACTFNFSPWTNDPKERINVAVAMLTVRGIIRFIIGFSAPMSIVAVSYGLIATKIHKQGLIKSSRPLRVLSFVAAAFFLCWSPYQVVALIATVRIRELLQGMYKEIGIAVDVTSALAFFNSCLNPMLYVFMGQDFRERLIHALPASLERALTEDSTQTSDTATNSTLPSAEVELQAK
- Assay Explanation: human FPR ligands by binding competition, primary screen, cell-based, FPRL1 counter-screen, flow cytometry (AID 440);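 further: 0% = buffer wells and 100% = receptor blocker peptide wells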
- Condition Notes: FPR-expressing cells, fluorescent ligand binding, hits give high values, concentration not given here
Screen size: about 24,000 compounds; about 180 (0.75%) were called active. The list comes from a sample in which actives are over-represented; it also holds close analogues and randomly drawn compounds.
Readout Kind: inhibition (%)
Numbers only, in %.

Previously resolved entries follow.
inhibition reading for CCOc1ccc(NC(=O)CCS(=O)(=O)c2cccc3nsnc23)cc1 : 7.6

inhibition reading for Cc1cc(Nc2cccc(F)c2)n2ncnc2n1 : -3.6

inhibition reading for COCCOC(=O)C1=C(C)NC(=O)CC1c1cc2c(cc1Br)OCO2 (stereo not drawn) : -1.8

inhibition reading for CN1CCCC(OC(=O)COc2ccc(Br)cc2)C1 (stereo not drawn) : -3

inhibition reading for CCOC(=O)CN1CC23C=CC(O2)C(C(=O)Nc2ccc(F)cc2)C3C1=O (stereo not drawn) : -4.5

inhibition reading for O=C(O)Cc1ccc(NC(=O)C2CCCCC2C(=O)O)cc1 (stereo not drawn) : -9.4

Would you mind listing inhibition for each of the following molecules?
1. CCOC(=O)c1ccc(-n2c(C)nc3c(cnn3-c3ccccc3C)c2=O)cc1
2. O=C(c1cccnc1NCc1ccccc1)N1CCOCC1
3. Cn1c(=O)n(C)c2cc(CNc3ccc(N4CCOCC4)c(C(=O)O)c3)ccc21
4. N#CCCN1CCN(S(=O)(=O)c2ccc(S(=O)(=O)N3CCCC3)cc2)CC1

1. -9.5
2. -10.6
3. 0.5
4. -3.3

Would you mind listing inhibition for each of the following molecules?
1. Cc1cc(Cl)c(S(=O)(=O)Nc2ccc3c(c2)OCCO3)cc1OCC(N)=O
2. COc1ccccc1CNC(=O)CCn1c(=O)sc2ccccc21

[-7.6, 1.8]

Would you mind listing inhibition for each of the following molecules?
1. O=C(CN1CCN(S(=O)(=O)c2ccc(F)cc2)CC1)Nc1ccccc1F
2. Cc1cc(=O)oc(C)c1C(=O)NCc1ccc(F)cc1
3. COC(=O)c1cc(S(=O)(=O)NC2CCN(Cc3ccccc3)CC2)cn1C
4. COc1cc(C2C(C(=O)Nc3ccc(F)cc3)=C(C)Nc3nc(CCCO)nn32)cc(OC)c1OC (stereo not drawn)

5.7
-12.6
-4.4
-4.8

Would you mind listing inhibition for each of the following molecules?
1. COc1ccc(CCNC(=O)C2CCN(c3nn4c(=O)cc(C)nc4s3)CC2)cc1OC
2. CC(=O)c1cccc(S(=O)(=O)N2CCC(n3nnc4cc(F)ccc43)CC2)c1

[-2.7, 9.5]

Would you mind listing inhibition for each of the following molecules?
1. O=C(O)CC(c1ccccc1)n1cnnn1 (stereo not drawn)
2. O=C(NCCc1ccc(Cl)cc1)C1CC(=O)N(C2CCCCC2)C1 (stereo not drawn)

[-4.6, -0.9]

Would you mind listing inhibition for each of the following molecules?
1. Cn1c(C(=O)N2CCC(C(N)=O)CC2)cc2c(=O)n(C)c3ccccc3c21
2. Cc1ccc(C)c(S(=O)(=O)n2cnc3ccccc32)c1
3. O=C(c1ccccc1)c1cccn1CC(=O)N1CCN(c2ccc(F)cc2)CC1

1: -1; 2: -0.2; 3: 0.2
